Sourced from ChEMBL document CHEMBL1137168

- Tested on: KB 3-1
- test.name: Compound was tested for the cytotoxicity against KB-3-1 cell line
- Format: functional, cell-based
- assay.context: Homo sapiens
// reported pIC50 for each item listed
Note: pIC50 values are expressed as the negative base-10 logarithm of concentration in M.

Use the examples below as a reference point.
compound: CN[C@H](C(=O)N[C@H](C(=O)N(C)[C@H](/C=C(\C)C(=O)O)C(C)C)C(C)(C)SCc1ccc(OC)cc1)C(C)(C)c1ccccc1
experimental.readout: pIC50
val: 7.23
--
compound: CN[C@H](C(=O)N[C@H](C(=O)N(C)[C@H](/C=C(\C)C(=O)O)C(C)C)C(C)(C)F)C(C)(C)c1ccccc1
experimental.readout: pIC50
val: 8.80
--
compound: CN[C@H](C(=O)N[C@H](C(=O)N(C)[C@H](/C=C(\C)C(=O)O)C(C)C)C(C)(C)SC)C(C)(C)c1ccc(OC)cc1
experimental.readout: pIC50
val: 9.19

Now take the following compound into account.
Q. Dear colleague, I am looking for the recorded pIC50 of the following compound: CN[C@H](C(=O)N[C@H](C(=O)N(C)[C@H](/C=C(\C)C(=O)O)C(C)C)C(C)OC)C(C)(C)c1ccccc1 (stereo not given in full)
A. 6.06
